MEASUREMENT NOTES: Determination of the microsomal half-life / microsomal clearance, human liver microsomes
Type: in vitro ADME
RUN PARAMETERS: 0.5 μM test substance, 0.25 mg of microsomal protein/ml, pH 7.4, 37° C.

SMILES TEXT	Human mCl
CCC(CC)n1cc(C(=O)NCC2CCCCC2)c2cc(OC)c(OC)cc2c1=O	∘ (>220 μl min^−1 mg^−1)
CCC(CC)n1cc(C(=O)N[C@@H](C)c2ccc(F)cc2)c2cc(OC)c(OC)cc2c1=O	∘ (>220 μl min^−1 mg^−1)

* * *

TESTED SYSTEM: PDE10A (Homo sapiens (Human))
Sequence (Q9Y233 whole entry, species assumed): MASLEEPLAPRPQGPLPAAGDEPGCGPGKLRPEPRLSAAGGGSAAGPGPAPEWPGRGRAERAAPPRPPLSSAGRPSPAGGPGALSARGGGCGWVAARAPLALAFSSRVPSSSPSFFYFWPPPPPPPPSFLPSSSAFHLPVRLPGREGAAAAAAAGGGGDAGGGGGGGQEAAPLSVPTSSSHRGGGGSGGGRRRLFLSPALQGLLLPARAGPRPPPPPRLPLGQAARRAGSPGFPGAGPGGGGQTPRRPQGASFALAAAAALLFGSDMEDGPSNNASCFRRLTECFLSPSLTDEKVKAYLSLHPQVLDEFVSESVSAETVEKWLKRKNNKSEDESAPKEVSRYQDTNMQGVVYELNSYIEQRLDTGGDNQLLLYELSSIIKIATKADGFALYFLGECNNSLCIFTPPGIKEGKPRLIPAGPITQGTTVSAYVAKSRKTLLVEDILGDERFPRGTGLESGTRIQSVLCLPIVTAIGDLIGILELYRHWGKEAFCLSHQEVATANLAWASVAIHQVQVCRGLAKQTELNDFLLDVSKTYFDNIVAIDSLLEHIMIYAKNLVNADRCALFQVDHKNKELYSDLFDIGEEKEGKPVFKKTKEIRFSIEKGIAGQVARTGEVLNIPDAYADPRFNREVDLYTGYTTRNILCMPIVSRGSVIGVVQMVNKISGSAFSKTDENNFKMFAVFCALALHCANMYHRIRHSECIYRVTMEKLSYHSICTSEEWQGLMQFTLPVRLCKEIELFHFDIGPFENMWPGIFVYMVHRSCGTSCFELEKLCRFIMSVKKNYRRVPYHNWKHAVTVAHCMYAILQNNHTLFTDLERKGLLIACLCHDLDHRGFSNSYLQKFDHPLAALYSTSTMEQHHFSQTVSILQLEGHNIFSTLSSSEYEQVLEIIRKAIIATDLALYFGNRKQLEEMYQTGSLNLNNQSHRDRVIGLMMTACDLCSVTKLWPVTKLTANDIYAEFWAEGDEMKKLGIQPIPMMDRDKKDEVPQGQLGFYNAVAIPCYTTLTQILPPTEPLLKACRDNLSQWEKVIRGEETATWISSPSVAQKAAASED
MEASUREMENT NOTES: Measurement of PDE activity (recombinant PDE, cAMP HTRF)
RUN PARAMETERS: 20 nM cyclic nucleotide substrate, 60 minutes at 29 C

COMPOUND	IC50
CCC(CC)n1cc(C(=O)NCc2ccc(C#N)o2)c2cc(OC)c(OC)cc2c1=O [Example 264]	200 to 500 nM
CCn1cc(C(=O)Nc2cccc(C)c2)c2cc(OC)c(OC)cc2c1=O [Example 145]	200 to 500 nM
CCn1cc(C(=O)NCc2ccc(C)cc2)c2cc(OC)c(OC)cc2c1=O [Example 161]	< 100 nM
CCC(CC)n1cc(C(=O)NCc2occc2C)c2cc(OC)c(OC)cc2c1=O [Example 267]	100 to 200 nM
CCC(CC)n1cc(C(=O)N[C@@H]2CCc3ccccc32)c2cc(OC)c(OC)cc2c1=O [Example 191]	200 to 500 nM
CCC(CC)n1cc(C(=O)NCc2ccc(F)c(F)c2)c2cc(OC)c(OC)cc2c1=O [Example 189]	100 to 200 nM
CCn1cc(C(=O)NC(C)c2ccccc2)c2cc(OC)c(OC)cc2c1=O (centres unmarked) [Example 29]	200 to 500 nM
CCn1cc(C(=O)NC2CCc3sccc32)c2cc(OC)c(OC)cc2c1=O (centres unmarked) [Example 172]	100 to 200 nM
CCn1cc(C(=O)NCc2ccc(F)c(F)c2)c2cc(OC)c(OC)cc2c1=O [Example 36]	100 to 200 nM
CCn1cc(C(=O)NC2CCc3cc(Cl)ccc32)c2cc(OC)c(OC)cc2c1=O (centres unmarked) [Example 169]	200 to 500 nM
COc1cc2c(C(=O)NC3CCc4ccccc43)cn(CCc3ccc4ccccc4n3)c(=O)c2cc1OC (centres unmarked) [Example 323]	200 to 500 nM
CCC(CC)n1cc(C(=O)NCc2cc(C)cs2)c2cc(OC)c(OC)cc2c1=O [Example 257]	100 to 200 nM
CCCCNC(=O)c1cn(CCc2ccc3ccccc3n2)c(=O)c2cc(OC)c(OC)cc12 [Example 322]	< 100 nM
CCn1cc(C(=O)Nc2cccc(OC)c2)c2cc(OC)c(OC)cc2c1=O [Example 147]	100 to 200 nM
CCC(CC)n1cc(C(=O)NC2CCc3ncccc32)c2cc(OC)c(OC)cc2c1=O (centres unmarked) [Example 186]	100 to 200 nM
CCn1cc(C(=O)NCc2ccc(C)cc2OC2CCOC2)c2cc(OC)c(OC)cc2c1=O (centres unmarked) [Example 303]	200 to 500 nM
CCC(CC)n1cc(C(=O)N[C@@H](C)c2ccc(F)cc2)c2cc(OC)c(OC)cc2c1=O [Example 246]	100 to 200 nM
